target: PI3Kα (p110α/p85α) (Homo sapiens); test: HTRF assay, potency against active PI3Kα; conditions: HTRF; [ATP]=50 μM, [di-C8-PIP2]=10 μM; 30 min pre-incubation; read-out: PI3Kα Inhibition
Sequence (P42336 whole entry): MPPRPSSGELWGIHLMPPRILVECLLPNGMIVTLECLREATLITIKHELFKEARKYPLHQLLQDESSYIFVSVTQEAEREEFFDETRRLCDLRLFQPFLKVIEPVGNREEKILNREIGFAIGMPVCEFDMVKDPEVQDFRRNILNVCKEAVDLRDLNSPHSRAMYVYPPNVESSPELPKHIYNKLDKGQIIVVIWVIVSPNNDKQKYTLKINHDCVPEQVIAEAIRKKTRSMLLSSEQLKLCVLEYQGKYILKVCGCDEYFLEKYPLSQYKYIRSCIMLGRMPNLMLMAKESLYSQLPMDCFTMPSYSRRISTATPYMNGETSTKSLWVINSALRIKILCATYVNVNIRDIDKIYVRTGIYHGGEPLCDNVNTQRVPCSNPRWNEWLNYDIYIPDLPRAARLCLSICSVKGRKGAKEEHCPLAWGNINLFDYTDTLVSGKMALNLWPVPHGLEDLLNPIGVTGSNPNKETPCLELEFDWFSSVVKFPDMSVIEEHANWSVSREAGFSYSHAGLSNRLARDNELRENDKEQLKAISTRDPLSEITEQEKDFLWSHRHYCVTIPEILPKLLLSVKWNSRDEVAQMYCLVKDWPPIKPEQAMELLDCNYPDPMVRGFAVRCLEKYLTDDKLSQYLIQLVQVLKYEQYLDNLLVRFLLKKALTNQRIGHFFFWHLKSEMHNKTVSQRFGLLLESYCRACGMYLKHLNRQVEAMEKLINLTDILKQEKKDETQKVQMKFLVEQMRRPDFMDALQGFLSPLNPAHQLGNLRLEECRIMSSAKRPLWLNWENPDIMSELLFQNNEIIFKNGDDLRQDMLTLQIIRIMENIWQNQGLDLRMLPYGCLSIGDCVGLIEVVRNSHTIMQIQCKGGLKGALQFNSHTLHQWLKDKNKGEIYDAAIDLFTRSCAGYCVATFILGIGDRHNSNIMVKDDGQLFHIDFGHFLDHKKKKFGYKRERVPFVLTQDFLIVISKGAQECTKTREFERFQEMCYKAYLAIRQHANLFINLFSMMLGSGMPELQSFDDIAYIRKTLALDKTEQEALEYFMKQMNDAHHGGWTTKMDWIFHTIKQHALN
Sequence (P27986 whole entry partner): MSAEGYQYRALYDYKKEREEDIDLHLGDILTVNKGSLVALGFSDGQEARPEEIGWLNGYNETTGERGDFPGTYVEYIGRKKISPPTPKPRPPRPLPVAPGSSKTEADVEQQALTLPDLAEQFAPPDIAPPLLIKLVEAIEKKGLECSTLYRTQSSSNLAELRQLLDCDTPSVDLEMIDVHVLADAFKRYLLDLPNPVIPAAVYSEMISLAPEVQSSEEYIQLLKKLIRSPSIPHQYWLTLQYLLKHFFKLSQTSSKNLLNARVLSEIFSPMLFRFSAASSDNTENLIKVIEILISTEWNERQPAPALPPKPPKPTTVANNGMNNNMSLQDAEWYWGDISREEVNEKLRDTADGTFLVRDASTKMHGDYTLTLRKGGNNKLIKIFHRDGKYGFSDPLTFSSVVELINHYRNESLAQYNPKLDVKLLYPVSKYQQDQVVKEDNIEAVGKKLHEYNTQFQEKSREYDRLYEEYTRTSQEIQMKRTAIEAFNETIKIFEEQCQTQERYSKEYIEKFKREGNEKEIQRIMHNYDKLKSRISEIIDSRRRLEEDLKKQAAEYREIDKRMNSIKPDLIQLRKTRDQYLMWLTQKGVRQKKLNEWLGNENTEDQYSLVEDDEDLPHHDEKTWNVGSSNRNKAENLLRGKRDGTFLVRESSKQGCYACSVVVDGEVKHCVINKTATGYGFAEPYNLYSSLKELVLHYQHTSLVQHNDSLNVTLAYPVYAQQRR
pIC50: −log10 of the molar value.
readout kind: pIC50

Worked cases, answers included:
C=CC(=O)N1CCN(c2ccc(-c3ccnc4ccc(/C=C5\SC(=O)NC5=O)cc34)cn2)CC1 7.00 to 8.00
C/C=C/C(=O)CCC(=O)N1CCC2(CC1)CN(c1cc(-c3cnc(N)nc3)nc(N3CCOCC3)c1)C2 6.00 to 7.00

For each of the items listed, what is its pIC50?
1. C=CC(=O)N1CCN(c2ccc(-c3cc4nc(-c5cccc(O)c5)nc(N5CCOCC5)c4s3)cc2)CC1
2. CCC(=O)N(C)CC(=O)N1CCC(n2nc(-c3ccc(OC)c(OC)c3)c3c(N)ncnc32)CC1
3. O=C(/C=C/c1ncc[nH]1)CCC(=O)N1CCN(Cc2cc3nc(-c4cccc5[nH]ncc45)nc(N4CCOCC4)c3s2)CC1
4. C=CC(=O)Nc1ccc(S(=O)(=O)N2CCN(Cc3cc4nc(-c5cccc6[nH]ncc56)nc(N5CCOCC5)c4s3)CC2)cc1
5. C=CC(=O)Nc1ccc(C(=O)N2CC=C(c3cc4nc(-c5cnc(N)nc5)cc(N5CCOCC5)c4s3)CC2)cc1
6. C=C(CC)C(=O)CCC(=O)N1CCN(c2ccc(-c3ccnc4ccc(/C=C5\SC(=O)NC5=O)cc34)cn2)CC1
7. CC(C)=CC(=O)CCC(=O)N1CCN(Cc2cc(-c3cnc(N)nc3)nc(N3CCOCC3)c2)CC1
8. C=CS(=O)(=O)N(C)Cc1cc2nc(-c3cccc(O)c3)nc(N3CCOCC3)c2s1

7.00 to 8.00
< 6.00
6.00 to 7.00
6.00 to 7.00
6.00 to 7.00
> 8.00
6.00 to 7.00
7.00 to 8.00

For each of the items listed, what is its pIC50?
1. C=CC(=O)NCC(=O)NCC(=O)N1CCN(Cc2cc3nc(-c4cccc5[nH]ncc45)nc(N4CCOCC4)c3s2)CC1
2. C/C=C/C(=O)CCC(=O)N1CCN(c2ccc(-c3ccnc4ccc(/C=C5\SC(=O)NC5=O)cc34)cn2)CC1
3. CC(C)=CC(=O)CN1CCN(c2ccc(-c3cc(-c4cnc(N)nc4)nc(N4CCOCC4)c3)cn2)CC1
4. CN(C/C=C/C(=O)CCC(=O)N1CCN(Cc2cc3nc(-c4cccc5[nH]ncc45)nc(N4CCOCC4)c3s2)CC1)C(=O)OC(C)(C)C
5. C=CC(=O)NCCC(=O)N1CC=C(c2cc3nc(-c4cccc5[nH]ncc45)nc(N4CCOCC4)c3s2)CC1
6. C=CC(=O)Nc1ccc(CC(=O)N2CCN(c3cc(-c4cnc(N)nc4)nc(N4CCOCC4)c3)CC2)cc1
7. C=CC(=O)NCc1ccc(-c2cc3nc(-c4cccc(O)c4)nc(N4CCOCC4)c3s2)cc1

1: 6.00 to 7.00; 2: > 8.00; 3: 7.00 to 8.00; 4: 7.00 to 8.00; 5: < 6.00; 6: 6.00 to 7.00; 7: > 8.00

For each of the items listed, what is its pIC50?
1. C/C=C/C(=O)CCC(=O)NCCOc1ccc2c(c1OC)N=C(NC(=O)c1cccnc1)N1CCN=C21
2. Cc1ccc(/C=C/C(=O)CCC(=O)N2CCN(Cc3cc4nc(-c5cccc6[nH]ncc56)nc(N5CCOCC5)c4s3)CC2)cc1
3. CC(C)=CC(=O)C1(C(=O)N2CCC3(CC2)CN(c2cc(-c4cnc(N)nc4)nc(N4CCOCC4)c2)C3)CC1
4. CC(C)=CC(=O)CCCC(=O)N1CC=C(c2cc3nc(-c4cnc(N)nc4)nc(N4CCOCC4)c3s2)CC1
5. COc1c(OCCNC(=O)c2ccc(NC(=O)/C=C/c3ncc[nH]3)cc2)ccc2c1N=C(NC(=O)c1cccnc1)N1CCN=C21
6. C=CC(=O)N1CCC2(CC1)CCN(C(=O)c1cc3nc(-c4cccc(O)c4)nc(N4CCOCC4)c3s1)CC2
7. C=CC(=O)N[C@H]1CC[C@H](C(=O)N(C)Cc2cc3nc(-c4cccc(O)c4)nc(N4CCOCC4)c3s2)CC1

7.00 to 8.00
7.00 to 8.00
6.00 to 7.00
> 8.00
7.00 to 8.00
6.00 to 7.00
< 6.00

Param readout = pIC50; param system = PI3Kα (p110α/p85α) (Homo sapiens); param query = C=CC(=O)N1CCN(c2ccc(-c3cc4nc(-c5cccc6[nH]ncc56)nc(N5CCOCC5)c4s3)cc2)CC1 ; response: value 6.00 to 7.00
